- assay-target: UniProt:P08684
- Sequence (P08684 whole entry): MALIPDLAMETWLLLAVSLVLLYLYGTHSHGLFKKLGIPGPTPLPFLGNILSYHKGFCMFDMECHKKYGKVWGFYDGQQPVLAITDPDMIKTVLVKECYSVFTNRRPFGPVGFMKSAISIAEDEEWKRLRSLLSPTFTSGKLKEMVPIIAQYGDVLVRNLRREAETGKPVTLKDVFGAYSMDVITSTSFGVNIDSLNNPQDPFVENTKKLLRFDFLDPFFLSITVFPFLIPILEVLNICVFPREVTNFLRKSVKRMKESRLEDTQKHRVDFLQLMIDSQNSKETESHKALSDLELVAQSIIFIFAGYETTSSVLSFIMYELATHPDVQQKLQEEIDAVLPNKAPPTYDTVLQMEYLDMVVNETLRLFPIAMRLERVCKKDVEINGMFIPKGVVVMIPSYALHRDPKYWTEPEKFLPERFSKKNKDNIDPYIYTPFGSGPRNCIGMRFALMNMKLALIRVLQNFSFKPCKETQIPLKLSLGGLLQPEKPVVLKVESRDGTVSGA
- test-description: biochemical
- setup-conditions: CYP 3A4 IC50, human liver microsomes; substrate testosterone
Where a name gives a salt, the structure may show the parent alone.
quantity-measured: IC50 (µM)
State the answer as a number, implicitly in µM.

Record excerpt, results attached:
{"compound": "[2H]C([2H])([2H])N(C[C@@H]1CN(S(=O)(=O)Cc2ccccc2)CC[C@@]1(O)c1cccc(OC)c1)C([2H])([2H])[2H] [II-3hydrochloride]", "assay-target": "UniProt:P08684", "quantity-measured": "IC50", "numeric-readout": 43.6}
{"compound": "[2H]C([2H])([2H])N(C)C[C@@H]1CN(C(=O)Cc2cc(F)c(F)cc2F)CC[C@@]1(O)c1cccc(OC)c1 [II-7hydrochloride]", "assay-target": "UniProt:P08684", "quantity-measured": "IC50", "numeric-readout": 47.5}
{"compound": "[2H]C([2H])([2H])N(C[C@@H]1CN(C(=O)Cc2cc(F)c(F)cc2F)CC[C@@]1(O)c1cccc(OC)c1)C([2H])([2H])[2H] [II-9hydrochloride]", "assay-target": "UniProt:P08684", "quantity-measured": "IC50", "numeric-readout": 47}

Query :: Check the records and state IC50 for [2H]C([2H])([2H])N(C)C[C@@H]1CN(S(=O)(=O)Cc2ccccc2)CC[C@@]1(O)c1cccc(OC)c1 [II-1hydrochloride]
Result :: 41.9
